The listing below reports IC50 for molecules tested on AKT [pT308].

- CPD SMILES: "C(#Cc1n[nH]c2ccccc12)c1ccccn1"
  IC50: "> 100 µM"
- CPD SMILES: "C(#Cc1n[nH]c2ccccc12)c1ccccc1"
  IC50: "> 100 µM"
- CPD SMILES: "C(#CC1CC1)c1n[nH]c2ccccc12"
  IC50: "> 50 µM"

====

The listing below reports pIC50 for compounds tested on AKT [pT308].
pIC50: −log10 of the molar value.

- COMPOUND: "Nc1ccc(C#Cc2n[nH]c3ccccc23)cc1 [Compound 6, 4-((1H-indazol-3-yl)ethynyl)aniline]"
  pIC50: 4.77
- COMPOUND: "FC(F)(F)c1cc(C#Cc2n[nH]c3ccccc23)cc(C(F)(F)F)c1 [Compound 17]"
  pIC50: "< 4.00"
- COMPOUND: "CN(C)CC#Cc1n[nH]c2ccccc12 [Compound 11]"
  pIC50: "< 4.00"
- COMPOUND: "C(#Cc1n[nH]c2ccccc12)c1ccsc1 [Compound 18, 3-(thiophen-3-ylethynyl)-1H-indazole]"
  pIC50: "< 4.00"
- COMPOUND: "C(#CC1CCCC1)c1n[nH]c2ccccc12 [Compound 14, 3-(cyclopentylethynyl)-1H-indazol]"
  pIC50: "< 4.30"
- COMPOUND: "N#Cc1ccc(C#Cc2n[nH]c3ccccc23)cc1 [Compound 19, 4-((1H-indazol-3-yl)ethynyl)benzonitrile]"
  pIC50: "< 4.30"
- COMPOUND: "Fc1cc(F)cc(C#Cc2n[nH]c3ccccc23)c1 [Compound 8]"
  pIC50: "< 4.00"
- COMPOUND: "Nc1ccccc1C#Cc1n[nH]c2ccccc12 [Compound 16, 2-((1H-indazol-3-yl)ethynyl)aniline]"
  pIC50: "< 4.00"
